Attribution: patent US20210171613A1

SYSTEM: T1, Clostridium difficile toxin A (TcdA) (Clostridium difficile, UniProt P16154 1-2710)
T1 construct: mature; also called full-length TcdA
T1 sequence (P16154 whole entry): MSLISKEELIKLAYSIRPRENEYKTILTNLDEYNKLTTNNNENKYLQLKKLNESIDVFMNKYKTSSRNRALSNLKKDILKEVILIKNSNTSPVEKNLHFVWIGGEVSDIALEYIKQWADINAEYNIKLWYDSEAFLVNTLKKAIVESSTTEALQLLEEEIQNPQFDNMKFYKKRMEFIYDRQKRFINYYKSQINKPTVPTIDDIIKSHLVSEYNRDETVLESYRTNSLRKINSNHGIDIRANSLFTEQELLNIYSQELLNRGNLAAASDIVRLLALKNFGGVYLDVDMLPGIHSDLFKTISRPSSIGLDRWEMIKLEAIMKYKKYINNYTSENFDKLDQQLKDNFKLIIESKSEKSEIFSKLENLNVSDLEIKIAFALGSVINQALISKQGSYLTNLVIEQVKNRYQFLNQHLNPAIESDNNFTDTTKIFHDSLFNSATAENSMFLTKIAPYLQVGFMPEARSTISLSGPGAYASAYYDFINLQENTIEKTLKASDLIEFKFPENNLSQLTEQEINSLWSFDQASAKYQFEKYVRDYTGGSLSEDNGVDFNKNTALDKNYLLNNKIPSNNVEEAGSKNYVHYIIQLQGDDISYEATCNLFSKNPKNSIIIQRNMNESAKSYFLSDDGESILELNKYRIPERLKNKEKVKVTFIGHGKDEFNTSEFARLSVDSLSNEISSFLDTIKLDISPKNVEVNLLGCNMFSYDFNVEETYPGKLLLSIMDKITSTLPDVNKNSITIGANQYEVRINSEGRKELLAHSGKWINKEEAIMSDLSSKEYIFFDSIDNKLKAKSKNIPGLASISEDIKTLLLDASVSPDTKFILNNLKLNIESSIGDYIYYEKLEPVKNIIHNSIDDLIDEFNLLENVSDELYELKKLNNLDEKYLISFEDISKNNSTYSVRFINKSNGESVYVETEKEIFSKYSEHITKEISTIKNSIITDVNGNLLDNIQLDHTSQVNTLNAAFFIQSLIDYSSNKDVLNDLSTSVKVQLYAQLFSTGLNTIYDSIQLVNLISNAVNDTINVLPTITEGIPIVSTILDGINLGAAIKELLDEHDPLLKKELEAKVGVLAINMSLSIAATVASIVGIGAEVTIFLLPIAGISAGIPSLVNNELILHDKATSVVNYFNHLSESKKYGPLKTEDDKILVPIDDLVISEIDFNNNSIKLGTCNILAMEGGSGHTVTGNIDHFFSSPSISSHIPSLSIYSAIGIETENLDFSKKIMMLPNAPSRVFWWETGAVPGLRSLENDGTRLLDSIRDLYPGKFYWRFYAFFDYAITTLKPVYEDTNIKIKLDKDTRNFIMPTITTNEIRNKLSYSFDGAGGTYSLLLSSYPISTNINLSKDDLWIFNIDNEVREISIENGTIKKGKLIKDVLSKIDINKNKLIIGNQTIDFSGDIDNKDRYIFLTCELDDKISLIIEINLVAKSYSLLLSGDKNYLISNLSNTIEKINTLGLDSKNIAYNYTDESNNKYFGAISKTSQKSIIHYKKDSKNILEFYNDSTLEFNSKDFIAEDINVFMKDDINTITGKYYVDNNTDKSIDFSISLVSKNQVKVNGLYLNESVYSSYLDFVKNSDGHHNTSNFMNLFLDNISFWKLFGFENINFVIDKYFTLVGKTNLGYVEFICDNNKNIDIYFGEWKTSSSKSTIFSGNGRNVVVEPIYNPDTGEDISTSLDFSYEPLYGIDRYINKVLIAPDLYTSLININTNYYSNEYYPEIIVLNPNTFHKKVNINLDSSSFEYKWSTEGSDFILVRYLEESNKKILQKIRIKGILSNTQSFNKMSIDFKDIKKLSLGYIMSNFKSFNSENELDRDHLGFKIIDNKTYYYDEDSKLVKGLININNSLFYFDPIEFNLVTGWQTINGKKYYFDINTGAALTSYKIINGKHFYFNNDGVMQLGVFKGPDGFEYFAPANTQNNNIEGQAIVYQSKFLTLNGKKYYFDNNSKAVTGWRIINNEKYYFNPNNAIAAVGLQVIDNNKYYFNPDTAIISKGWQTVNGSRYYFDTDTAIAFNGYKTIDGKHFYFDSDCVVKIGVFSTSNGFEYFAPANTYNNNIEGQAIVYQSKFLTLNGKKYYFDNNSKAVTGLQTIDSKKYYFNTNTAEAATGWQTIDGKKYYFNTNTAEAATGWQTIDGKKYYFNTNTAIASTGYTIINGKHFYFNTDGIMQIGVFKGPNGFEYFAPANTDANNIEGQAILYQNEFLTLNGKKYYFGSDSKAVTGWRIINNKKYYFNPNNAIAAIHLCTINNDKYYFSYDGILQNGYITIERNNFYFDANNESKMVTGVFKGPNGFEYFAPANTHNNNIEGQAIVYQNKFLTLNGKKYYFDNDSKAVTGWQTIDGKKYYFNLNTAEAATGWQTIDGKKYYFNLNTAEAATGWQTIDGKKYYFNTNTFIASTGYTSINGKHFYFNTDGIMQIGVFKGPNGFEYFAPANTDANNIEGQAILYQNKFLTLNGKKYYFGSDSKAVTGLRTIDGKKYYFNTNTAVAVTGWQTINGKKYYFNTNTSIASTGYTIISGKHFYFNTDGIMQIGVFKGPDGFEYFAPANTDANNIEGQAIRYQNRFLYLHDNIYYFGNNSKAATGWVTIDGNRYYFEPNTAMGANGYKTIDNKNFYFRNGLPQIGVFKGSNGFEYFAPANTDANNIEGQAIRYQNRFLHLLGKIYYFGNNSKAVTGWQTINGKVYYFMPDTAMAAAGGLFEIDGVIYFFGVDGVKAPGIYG
PROTOCOL_NOTES: SPR (Biacore 3000), VHH over immobilized TcdA, 1:1 fit
EXPERIMENTAL_READOUT: Kd
A bare number is not enough; add the unit after it.

BINDER	OBSERVED_VALUE
A26.8-T103W (VHH, not shown: small tags and cut ends) VHH: QVKLEESGGGLVQAGGSLRLSCAASERTFSRYPVAWFRQAPGAEREFVAVISSTGTSTYYADSVKGRFTISRDNAKVTVYLQMNNLKREDTAVYFCAVNSQRWRLQDPNEYDYWGQGTQVTVSS	16.3 nM

Which value of Kd has been reported for A26.8-T56R, Q101K, T103R (VHH, not shown: small tags and cut ends, also called lead triple mutant; best triple mutant) VHH: QVKLEESGGGLVQAGGSLRLSCAASERTFSRYPVAWFRQAPGAEREFVAVISSTGRSTYYADSVKGRFTISRDNAKVTVYLQMNNLKREDTAVYFCAVNSKRRRLQDPNEYDYWGQGTQVTVSS in the records?
1.98 nM
